Measured values drawn from patent US20200079833A1 for this set.

SUBJECT OF TEST: T1, GLP-1R in the INS1e assay (UniProt P32301 22-463, limits assumed)
T1 sequence (looked up): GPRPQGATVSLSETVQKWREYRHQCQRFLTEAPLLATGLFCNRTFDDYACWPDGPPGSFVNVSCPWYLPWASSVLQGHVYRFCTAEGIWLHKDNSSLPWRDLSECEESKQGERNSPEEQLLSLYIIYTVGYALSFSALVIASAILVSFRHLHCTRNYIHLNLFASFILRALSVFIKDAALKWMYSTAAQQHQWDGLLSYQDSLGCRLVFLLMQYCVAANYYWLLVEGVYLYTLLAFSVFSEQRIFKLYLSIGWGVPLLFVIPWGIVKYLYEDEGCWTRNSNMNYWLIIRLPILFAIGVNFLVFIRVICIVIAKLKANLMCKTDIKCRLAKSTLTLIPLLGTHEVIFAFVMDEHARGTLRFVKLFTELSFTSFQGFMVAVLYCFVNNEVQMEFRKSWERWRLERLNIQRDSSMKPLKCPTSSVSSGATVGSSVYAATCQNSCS
PROTOCOL TEXT: cell-based or functional assay
Starred links: 1 amine or outer side, 2 acyl side, 3 side chain; linkers in the order of their positions; H or OH if unused. Non-standard residues stand in square brackets, D forms with d. Groups on a side chain read outwards from the residue. Primed or numbered codes have the meaning given here. No end group written: not given here. *: point of attachment. Tyr(OMe) = COc1ccc(C[C@H](N[*:1])C(=O)[*:2])cc1; γGlu = O=C(O)[C@H](CCC(=O)[*:2])N[*:1]; Palmitoyl = CCCCCCCCCCCCCCCC(=O)*; αMeF = C[C@](N)(Cc1ccccc1)C(=O)O; αMeK = C[C@](N)(CCCCN)C(=O)O; Lauroyl = CCCCCCCCCCCC(=O)*; αMeS = C[C@](N)(CO)C(=O)O; PEG2′ = not defined here; Aib = CC(C)(N)C(=O)O
REPORTED PROPERTY: INS1e assay EC50 (cAMP) n1 (nM)

The following binders have reported results that may help.
[[record]]
binder = "H[Aib]EGS[αMeF]TSDV[αMeS]SK([PEG2′-PEG2′-γGlu-Lauroyl])LEGEAA[αMeK]E[Tyr(OMe)]IAK([PEG2′-PEG2′-γGlu-Lauroyl])VVEGG-NH2 [SEQ ID NO: 406]"
readout_unit = "nM"
measured_result = 0.101

[[record]]
binder = "H[Aib]EGS[αMeF]TSDVSK([PEG2′-PEG2′-γGlu-Lauroyl])YLEGEAA[αMeK]EFIK([PEG2′-PEG2′-γGlu-Lauroyl])WVVEGG-NH2 [SEQ ID NO: 249]"
readout_unit = "nM"
measured_result = 0.721


(I) H[Aib]EGS[αMeF]TSDV[αMeS]SK([PEG2′-PEG2′-γGlu-Lauroyl])LEGEAA[αMeK]EFIK([PEG2′-PEG2′-γGlu-Lauroyl])WVVEGG-NH2 [SEQ ID NO: 262]
(II) H[Aib]EGS[αMeF]TSDV[αMeS]SK([PEG2′-PEG2′-γGlu-Palmitoyl])LEGEAA[αMeK]EFIK([PEG2′-PEG2′-γGlu-Palmitoyl])WVVEGG-NH2 [SEQ ID NO: 265]
Input: Endpoint returns the identifier whose INS1e assay EC50 (cAMP) n1 is numerically larger, either I or II . Lab log: write the label of the selected item as the result.
Output: II
(II: 12.2 nM, I: 0.7 nM)
